Biological target: CHK2 (Homo sapiens, UniProt O96017)
Sequence (O96017 whole entry, species assumed): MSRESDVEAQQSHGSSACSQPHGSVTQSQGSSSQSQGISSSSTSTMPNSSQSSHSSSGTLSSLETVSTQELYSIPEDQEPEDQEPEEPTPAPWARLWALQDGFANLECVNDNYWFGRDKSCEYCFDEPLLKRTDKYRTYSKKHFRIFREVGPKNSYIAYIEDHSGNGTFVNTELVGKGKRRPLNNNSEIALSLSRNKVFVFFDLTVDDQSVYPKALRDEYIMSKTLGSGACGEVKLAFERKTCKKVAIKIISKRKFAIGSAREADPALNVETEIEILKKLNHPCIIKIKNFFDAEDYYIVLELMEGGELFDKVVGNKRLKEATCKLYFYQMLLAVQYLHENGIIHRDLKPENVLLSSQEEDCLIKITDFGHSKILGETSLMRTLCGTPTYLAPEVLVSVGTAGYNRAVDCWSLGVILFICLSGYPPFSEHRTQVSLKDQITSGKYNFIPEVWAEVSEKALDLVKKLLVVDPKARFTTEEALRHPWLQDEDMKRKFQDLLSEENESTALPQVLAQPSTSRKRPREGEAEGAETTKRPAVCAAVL
pIC50: −log10 of the molar value.
observable: pIC50

The reported pIC50 value, CHK2 (Homo sapiens, UniProt O96017), for "COc1cccc(CNc2nnc(-c3c[nH]c4ncccc34)o2)c1" reads 7.00 to 9.00

Sourced from patent US8466170B2
